molecular target: α5-GABAA receptor (α5, β3, γ2 subunits) (Homo sapiens (Human), UniProt P18507+P31644); test: Whole cell patch clamp, inverse agonist efficacy in HEK293 cells expressing α5-GABAA receptor; type: cell-based; conditions: HEK293, drug 100 nM, GABA 0.05 μM, −60 mV; read-out: Compound inverse agonist efficacy %
Assay Readout: inhibition at 0.1 µM (%)

Cc1nnn(-c2ccc(C(F)F)cc2)c1COc1ccc(N2CCN3CCOC[C@@H]3C2)nn1 [Example 13]; 43.3
Cc1nnn(-c2ccc(C(F)F)cc2)c1COc1ccc(N2CC(CO)OC2=O)nn1 (centres unmarked) [Example 66]; 52.7
Cc1nnn(-c2ccc(C(F)F)cc2)c1COc1ccc(N2CCN(CC3COC3)C(=O)C2)nn1 [Example 100]; 54.6
Cc1nnn(-c2ccc(C(F)F)cc2)c1COc1cnc(N2CCNC(=O)C2)cn1 [Example 169]; 40.5
Cc1nnn(-c2ccc(C(F)F)cc2)c1COc1ccc(N2CCO[C@H](C(=O)O)C2)nn1 [Example 35]; 52.8
Cc1nnn(-c2ccc(C(F)F)cc2)c1COc1ccc(N2CCN(CCN3CCOCC3)C(=O)C2)nn1 [Example 95]; 51.9
Cc1nnn(-c2ccc(C(F)F)cc2)c1COc1ccc(N2CC(C(=O)Nc3ccn(C)n3)C2)nn1 [Example 101]; 43.9
Cc1nnn(-c2ccc(C(F)F)cc2)c1COc1ccc(N2CCN(CC3CCCO3)C(=O)C2)nn1 (centres unmarked) [Example 96]; 46.5

* * *

biological target: human α5β3γ2 receptors (α5-GABAA receptor) (Homo sapiens (Human), UniProt P18507+P31644); test: 3H-flunitrazepam competition binding, human α5β3γ2 GABAA receptor; details: HEK293 cell membranes, 1 nM 3H-flunitrazepam; read-out: α5-GABAAR Ki
Assay Readout: Ki (nM)

# count of solved cases: 2
Cc1nnn(-c2ccc(C(F)F)cc2F)c1COc1ccc(N2CCNC(=O)C2)nn1 [Example 167]; 1.08
Cc1nnn(-c2ccc(C(F)F)cc2)c1COc1ccc(N2CCN(CCN3CCC(F)(F)C3)C(=O)C2)nn1 [Example 110]; 1.6

(A) Cc1nnn(-c2ccc(C(F)F)cc2)c1COc1cnc(N2CCNC(=O)C2)cn1 [Example 169]
(B) Cc1nnn(-c2ccc(C(F)F)cc2)c1COc1ccc(N2CCN3CCOC[C@@H]3C2)nn1 [Example 13]
Exercise: Could you point out whether the larger Ki belongs to A or to B ? # respond with the chosen item's label
Key: B
(B: 2.2 nM, A: 1.11 nM)

* * *

biological target: human α5β3γ2 receptors (α5-GABAA receptor) (Homo sapiens (Human), UniProt P18507+P31644); experiment: 3H-flunitrazepam competition binding, human α5β3γ2 GABAA receptor; conditions: HEK293 cell membranes, 1 nM 3H-flunitrazepam; read-out: α5-GABAAR Ki
Assay Readout: Ki (nM)

Cc1nnn(-c2ccc(C(F)F)cc2)c1COc1ccc(N2CC3(CCNC3=O)C2)nn1 [Example 86]; 8.31
Cc1nnn(-c2ccc(C(F)F)cc2)c1COc1ccc(N2CC[C@H]3CCNC(=O)[C@@H]3C2)nn1 (relative stereo) [Example 124]; 2.4
Cc1nnn(-c2ccc(C(F)F)cc2)c1COc1ccc(N2CCN(C3CC3)C(=O)C2)nn1 [Example 108]; 1.66
Cc1nnn(-c2ccc(C(F)F)cc2)c1COc1ccc(N2CC(=O)N[C@H](C(=O)O)C2)nn1 [Example 36]; 13.6

(a) Cc1nnn(-c2ccc(C(F)F)cc2)c1COc1ccc(N2C[C@H]3C[C@@H]2C(=O)N3)nn1 [Example 116]
(b) Cc1nnn(-c2ccc(C(F)F)cc2)c1COc1ccc(N2CC(C(=O)N3CC(C)OC(C)C3)C2)nn1 (stereo not shown) [Example 156]
(c) Cc1nnn(-c2ccc(C(F)F)cc2F)c1COc1ccc(N2CCN3CCNC(=O)[C@@H]3C2)nn1 [Example 168]
Exercise: Ascending by Ki, please: list the compounds accordingly. Respond with the label ranking, as requested.
Key: a, c, b
(a: 1.66 nM, c: 2.84 nM, b: 4.13 nM)

(1) Cc1nnn(-c2ccc(C(F)F)cc2)c1COc1ccc(N2CC(C(=O)NC3CC3)C2)nn1 [Example 44]
(2) Cc1nnn(-c2ccc(C(F)F)cc2)c1COc1ccc(N2CCOC3(CCS(=O)(=O)C3)C2)nn1 (stereo not shown) [Example 105]
(3) Cc1nnn(-c2ccc(C(F)F)cc2)c1COc1ccc(N2CCN(C)C2=O)nn1 [Example 24]
(4) Cc1nnn(-c2ccc(C(F)F)cc2)c1COc1ccnc(N2CCNC(=O)C2)n1 [Example 213]
(5) Cc1nnn(-c2ccc(C(F)F)cc2)c1COc1ccc(N2CCN3C(C(C)C)CNC(=O)[C@@H]3C2)nn1 (stereo partly shown) [Example 207]
Exercise: Ascending by Ki, please: list the compounds accordingly. Respond with the label ranking, as requested.
Key: 2, 1, 5, 3, 4
(2: 1.24 nM, 1: 2.31 nM, 5: 4.92 nM, 3: 7.72 nM, 4: 54.1 nM)

(a) COc1cccnc1NC(=O)C1CN(c2ccc(OCc3c(C)nnn3-c3ccc(C(F)F)cc3)nn2)C1 [Example 152]
(b) O=C1CN(c2ccc(OCc3cnnn3-c3ccc(C(F)F)cc3)nn2)CCN1 [Example 132]
(c) Cc1nnn(-c2ccc(C(F)F)cc2)c1COc1ccc(N2CC(C(C)C)N3CCNC[C@H]3C2=O)nn1 (stereo partly shown) [Example 215]
Exercise: Ascending by Ki, please: list the compounds accordingly. Respond with the label ranking, as requested.
Key: a, b, c
(a: 1.65 nM, b: 12.1 nM, c: 36.1 nM)

* * *

biological target: human α3β3γ2 receptors (Homo sapiens (Human), UniProt P18507+P34903); assay: 3H-flunitrazepam competition binding, human α3β3γ2 GABAA receptor; details: HEK293 cell membranes, 1 nM 3H-flunitrazepam; read-out: Ki α3
Assay Readout: Ki (nM)

Cc1nnn(-c2ccc(C(F)F)cc2)c1COc1ccc(N2CC(=O)NC(=O)C2)nn1 [Example 5]; 16.8

(A) Cc1nnn(-c2ccc(F)cc2)c1COc1ccc(N2CCNC(=O)C2)nn1 [Example 76]
(B) Cc1nnn(-c2ccc(C(F)F)cc2)c1COc1cnc(N2CCNC(=O)C2)cn1 [Example 169]
(C) Cc1nnn(-c2ccc(C(F)F)cc2)c1COc1ccc(N2CCNC2=O)nn1 [Example 19]
Exercise: Ascending by Ki, please: list the molecules accordingly. Respond with the label ranking, as requested.
Key: C, B, A
(C: 7.34 nM, B: 26.3 nM, A: 173 nM)

(1) Cc1nnn(-c2ccc(C(F)F)cc2)c1COc1ccc(N2CCNC(=O)C2)nn1 [Example 2]
(2) Cc1nnn(-c2ccc(C(F)F)cc2)c1COc1ccc(N2CCN3CCN(C4CC4)C(=O)[C@@H]3C2)nn1 [Example 148]
(3) Cc1nnn(-c2ccc(C(F)F)cc2)c1COc1ccc(N2CC(=O)NC(C)C2)nn1 (centres unmarked) [Example 6]
Exercise: hey, can you rank those molecules up there by Ki? biggest number first please Respond with the label ranking, as requested.
Key: 2, 1, 3

* * *

molecular target: human α2β3γ2 receptors (Homo sapiens (Human), UniProt P18507+P47869); assay: 3H-flunitrazepam competition binding, human α2β3γ2 GABAA receptor; conditions: HEK293 cell membranes, 1 nM 3H-flunitrazepam; read-out: Ki α2
pKi: −log10 of the molar value.
Assay Readout: pKi

Cc1nnn(-c2ccc(C(F)F)cc2)c1COc1ccc(N2CC(=O)N3CCOC[C@H]3C2)nn1; 7.78

(1) Cc1nnn(-c2ccc(C(F)F)cc2)c1COc1ccc(N2CCNC(=O)C2)nn1
(2) Cc1nnn(-c2ccc(C(F)F)cc2)c1COc1ccc(N2CCN(C)C(=O)C2)nn1
(3) Cc1nnn(-c2ccc(F)cc2)c1COc1ccc(N2CCNC(=O)C2)nn1
Exercise: Ascending by pKi, please: list the molecules accordingly. Respond with the label ranking, as requested.
Key: 3, 2, 1
(3: 6.52, 2: 7.34, 1: 7.70)

* * *

molecular target: human α5β3γ2 receptors (α5-GABAA receptor) (Homo sapiens (Human), UniProt P18507+P31644); test: 3H-flunitrazepam competition binding, human α5β3γ2 GABAA receptor; settings: HEK293 cell membranes, 1 nM 3H-flunitrazepam; read-out: α5-GABAAR Ki
Assay Readout: Ki (nM)

# count of solved cases: 2
CCNC(=O)CC1CN(c2ccc(OCc3c(C)nnn3-c3ccc(C(F)F)cc3)nn2)CCO1 (stereo not shown); 1.49
Cc1nnn(-c2ccc(C(F)F)cc2)c1COc1ccc(N2CC(C(=O)Nc3ccncc3)C2)nn1; 1.1

(P) CCNC(=O)C1C2CN(c3ccc(OCc4c(C)nnn4-c4ccc(C(F)F)cc4)nn3)CC21 (stereo not shown)
(Q) Cc1nnn(-c2ccc(CO)cc2)c1COc1ccc(N2CCNC(=O)C2)nn1
Exercise: Could you point out whether the larger Ki belongs to P or to Q ? # respond with the chosen item's label
Key: Q
(Q: 32.5 nM, P: 1.59 nM)

(1) Cc1nnn(-c2ccc(C(F)F)cc2)c1COc1ccc(N2CCN3CC(C(C)(C)C)NC(=O)[C@@H]3C2)nn1 (single isomer, unassigned) [Example 201]
(2) CCNC(=O)[C@H]1CCCN1c1ccc(OCc2c(C)nnn2-c2ccc(C(F)F)cc2)nn1
Exercise: Could you point out whether the larger Ki belongs to 1 or to 2 ? # respond with the chosen item's label
Key: 2
(2: 42.6 nM, 1: 1.74 nM)

(P) Cc1nnn(-c2ccc(C(F)F)cc2)c1COc1ccc(N2CCN3c4nc(F)ccc4NC(=O)[C@@H]3C2)nn1
(Q) Cc1nnn(-c2ccc(C(F)F)cc2)c1COc1ccc(N2CCN(CCO)C(=O)C2)nn1
Exercise: Could you point out whether the larger Ki belongs to P or to Q ? # respond with the chosen item's label
Key: Q
(Q: 3.97 nM, P: 0.54 nM)

(1) Cc1nnn(-c2ccc(C(F)F)cc2)c1COc1ccc(N2CC(=O)NC(C)C2)nn1 (stereo not shown)
(2) Cc1nnn(-c2ccc(C(F)F)cc2)c1COc1ccc(N2CCN3CC(C4CC4)NC(=O)[C@@H]3C2)nn1 (single isomer, unassigned) [Example 203]
Exercise: Identify the entry with the smaller Ki: 1 or 2 . # respond with the chosen item's label
Key: 1
(1: 0.91 nM, 2: 1.99 nM)

(1) Cc1nnn(-c2ccc(C(F)F)cc2)c1COc1ccc(N2CCN[C@H](C#N)C2)nn1
(2) CCNC(=O)C1CN(c2ccc(OCc3c(C)nnn3-c3ccc(C(F)F)cc3)nc2)C1
Exercise: Identify the entry with the smaller Ki: 1 or 2 . # respond with the chosen item's label
Key: 1
(1: 3.31 nM, 2: 20 nM)

(1) Cc1nnn(-c2ccc(C(F)F)cc2)c1COc1ccc(C2=CCCOC2)nn1
(2) Cc1nnn(-c2ccc(C(F)F)cc2)c1COc1ccc(N2CC(=O)N3CCN(CC(F)(F)F)CC3C2)nn1 (stereo not shown)
Exercise: Identify the entry with the smaller Ki: 1 or 2 . # respond with the chosen item's label
Key: 1

Every entry's value here was drawn from patent US20250136581A1.
